- target-system: ΔF508-CFTR (Homo sapiens, UniProt P13569, DEL508-508)
- Construct: expressed in transfected cells
- Sequence (P13569 with tags, fused parts or gaps DEL508-508): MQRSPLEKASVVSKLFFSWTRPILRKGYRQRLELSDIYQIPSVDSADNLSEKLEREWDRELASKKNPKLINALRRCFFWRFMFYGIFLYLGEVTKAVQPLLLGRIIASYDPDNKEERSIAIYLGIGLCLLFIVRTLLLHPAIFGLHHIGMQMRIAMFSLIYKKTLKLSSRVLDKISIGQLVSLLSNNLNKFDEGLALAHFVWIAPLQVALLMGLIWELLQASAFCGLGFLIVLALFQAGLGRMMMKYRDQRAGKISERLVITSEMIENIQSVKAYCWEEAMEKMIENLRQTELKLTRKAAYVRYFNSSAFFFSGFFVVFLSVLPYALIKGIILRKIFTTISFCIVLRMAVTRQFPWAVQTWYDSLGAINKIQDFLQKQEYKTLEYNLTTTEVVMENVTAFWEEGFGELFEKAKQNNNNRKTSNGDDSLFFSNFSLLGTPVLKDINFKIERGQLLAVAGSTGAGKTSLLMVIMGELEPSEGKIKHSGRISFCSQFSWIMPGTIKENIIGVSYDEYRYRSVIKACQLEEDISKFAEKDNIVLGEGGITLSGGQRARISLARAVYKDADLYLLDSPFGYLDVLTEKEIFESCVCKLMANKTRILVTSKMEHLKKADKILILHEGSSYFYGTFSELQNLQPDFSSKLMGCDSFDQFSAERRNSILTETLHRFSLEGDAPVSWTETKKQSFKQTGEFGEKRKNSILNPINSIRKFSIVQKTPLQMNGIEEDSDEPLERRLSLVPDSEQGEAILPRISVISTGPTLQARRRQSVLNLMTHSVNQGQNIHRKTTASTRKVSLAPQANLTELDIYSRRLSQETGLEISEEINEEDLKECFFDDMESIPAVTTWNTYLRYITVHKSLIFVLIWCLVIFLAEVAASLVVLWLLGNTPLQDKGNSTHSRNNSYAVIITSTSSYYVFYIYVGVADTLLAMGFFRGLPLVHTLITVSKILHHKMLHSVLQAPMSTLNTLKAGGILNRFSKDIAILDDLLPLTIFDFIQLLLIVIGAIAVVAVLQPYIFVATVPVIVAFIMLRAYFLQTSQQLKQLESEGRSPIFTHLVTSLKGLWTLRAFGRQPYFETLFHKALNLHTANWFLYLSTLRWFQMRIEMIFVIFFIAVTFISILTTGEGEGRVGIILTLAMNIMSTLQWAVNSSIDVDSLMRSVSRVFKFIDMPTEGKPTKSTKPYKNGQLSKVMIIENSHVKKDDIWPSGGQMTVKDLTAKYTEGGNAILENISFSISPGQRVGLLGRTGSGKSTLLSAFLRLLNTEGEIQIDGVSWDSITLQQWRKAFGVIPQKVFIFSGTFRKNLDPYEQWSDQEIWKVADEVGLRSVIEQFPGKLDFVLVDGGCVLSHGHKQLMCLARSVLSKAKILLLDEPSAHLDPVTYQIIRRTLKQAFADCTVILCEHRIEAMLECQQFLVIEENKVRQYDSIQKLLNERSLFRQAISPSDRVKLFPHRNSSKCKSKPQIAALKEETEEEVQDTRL
- assay-summary: Membrane potential optical assay (FRET voltage-sensor dyes, VIPR), identification of potentiator compounds
- Assay type: cell-based
- condition-set: Table 3; assay not given; read-out: % Activity (% Efficacy, relative efficacy)
endpoint: Emax

Example entries begin here.
| compound | endpoint | recorded-result |
| --- | --- | --- |
| CCC(C)c1c[nH]c2cc(NC(=O)c3c[nH]c4ccccc4c3=O)ccc12 (stereo not drawn) | Emax | 25 to 100% |
| CCCc1ccc(N)cc1NC(=O)c1c[nH]c2ccccc2c1=O | Emax | 25 to 100% |
| COc1ccc(C(C)C)cc1-c1ccccc1NC(=O)c1c[nH]c2ccccc2c1=O | Emax | > 100% |
| O=C(Nc1ccccc1-c1cc(F)ccc1F)c1c[nH]c2ccccc2c1=O | Emax | 25 to 100% |
| Nc1cccc(NC(=O)c2c[nH]c3ccccc3c2=O)c1 | Emax | 25 to 100% |
| NS(=O)(=O)c1ccc(NC(=O)c2c[nH]c3ccccc3c2=O)cc1 | Emax | < 25% |
| CC(C)(C)c1ccc(NC(=O)c2c[nH]c3ccc(F)cc3c2=O)cc1F | Emax | 25 to 100% |
| Cc1cccc(NC(=O)c2c[nH]c3ccccc3c2=O)c1 | Emax | 25 to 100% |
| COc1ccc2[nH]cc(C(=O)Nc3ccc(N4[C@H](C)CC[C@H]4C)cc3C(F)(F)F)c(=O)c2c1 | Emax | 25 to 100% |
| O=C(Nc1ccc2c(c1)CCO2)c1c[nH]c2ccccc2c1=O | Emax | < 25% |

Could you please provide reported Emax for COc1ccccc1-c1cc2cc[nH]c2cc1NC(=O)c1c[nH]c2ccccc2c1=O ? Thanks!
25 to 100%

Let me know recorded Emax for C#Cc1ccc(NC(=O)c2c[nH]c3ccccc3c2=O)cc1 , thanks.
25 to 100%

Give me measured Emax, please, for this compound: COc1ccc(-c2ccccc2NC(=O)c2c[nH]c3ccccc3c2=O)c(OC)c1
25 to 100%

Give reported Emax value for O=C(Nc1ccc2c(C(F)(F)F)c[nH]c2c1)c1c[nH]c2ccccc2c1=O
> 100%

Entry Cc1cc(C(C)(C)C)c(O)cc1NC(=O)c1c[nH]c2cccc(O)c2c1=O needs its Emax filled in; supply it.
25 to 100%

Item CC(C)(C)c1cc2ccc(NC(=O)c3c[nH]c4ccccc4c3=O)cc2[nH]1 : provide Emax
25 to 100%

Output Emax of Cc1cccc(Oc2ncccc2NC(=O)c2c[nH]c3ccccc3c2=O)c1C
25 to 100%

Please indicate Emax recorded for COc1ccc2[nH]cc(C(=O)Nc3cc(O)c(C(C)(C)C)cc3C(C)(C)C)c(=O)c2c1
25 to 100%

* * *

- target-system: ΔF508-CFTR (Homo sapiens, UniProt P13569, DEL508-508)
- Construct: expressed in transfected cells
- assay-summary: Membrane potential optical assay (FRET voltage-sensor dyes, VIPR), identification of potentiator compounds
- Assay type: cell-based
- condition-set: Table 3; assay not given; read-out: % Activity (% Efficacy, relative efficacy)
endpoint: Emax

Sample records with Emax:
| line-notation | recorded-result |
| --- | --- |
| COc1nc2ccccc2c(OC)c1C(=O)Nc1ccccc1C(C)(C)C | 25 to 100% |
| CCOC(=O)C(C)(C)c1ccc(NC(=O)c2c[nH]c3ccccc3c2=O)cc1 | 25 to 100% |
| O=C(Nc1ccc2ccccc2n1)c1c[nH]c2ccccc2c1=O | < 25% |
| CCOC(=O)Nc1cc(NC(=O)c2c[nH]c3ccccc3c2=O)ccc1CC | 25 to 100% |
| Cc1cc(C)c(NC(=O)c2c[nH]c3ccccc3c2=O)c(C)c1 | 25 to 100% |
| O=C(Nc1cccc(-c2cccs2)c1)c1c[nH]c2ccccc2c1=O | 25 to 100% |

Give the measured Emax for O=C(Nc1ccc2nccnc2c1)c1c[nH]c2ccccc2c1=O
< 25%

Using the record for O=C(Nc1ccc(Cl)cn1)c1c[nH]c2ccccc2c1=O , state its measured Emax.
< 25%

Note Emax for the compound shown: CC1(C)CCOc2cc(NC(=O)c3c[nH]c4ccccc4c3=O)ccc21
25 to 100%

* * *

- target-system: ΔF508-CFTR (Homo sapiens, UniProt P13569, DEL508-508)
- Construct: expressed in transfected cells
- assay-summary: Membrane potential optical assay (FRET voltage-sensor dyes, VIPR), identification of potentiator compounds
- Assay type: cell-based
- condition-set: Table 3; assay not given; read-out: % Activity (% Efficacy, relative efficacy)
endpoint: Emax

Worked examples follow.
| line-notation | endpoint | recorded-result |
| --- | --- | --- |
| O=C(Nc1ccncc1)c1c[nH]c2ccccc2c1=O | Emax | < 25% |
| CCc1ccc(Cl)c(CC)c1NC(=O)c1c[nH]c2ccccc2c1=O | Emax | 25 to 100% |
| CCc1cccc2c(=O)c(C(=O)Nc3cc(O)c(C(C)(C)C)cc3F)c[nH]c12 | Emax | < 25% |

Answer with the recorded Emax of N#CCc1ccccc1NC(=O)c1c[nH]c2ccccc2c1=O only.
25 to 100%

Annotate the compound COc1ccc(NC(=O)c2c[nH]c3ccccc3c2=O)cc1N with its measured Emax.
25 to 100%

Report measured Emax; entry is CC(C)(C)c1cc(NC(=O)c2c[nH]c3ccccc3c2=O)c(O)c(C(C)(C)C)c1
25 to 100%

* * *

- target-system: ΔF508-CFTR (Homo sapiens, UniProt P13569, DEL508-508)
- Construct: expressed in transfected cells
- assay-summary: Membrane potential optical assay (FRET voltage-sensor dyes, VIPR), identification of potentiator compounds
- Format: cell-based
- condition-set: Table 3; assay not given; read-out: % Activity (% Efficacy, relative efficacy)
endpoint: Emax

| molecule | Emax |
| --- | --- |
| CC(C)(C)c1cc(F)c(NC(=O)c2c[nH]c3c(C(F)(F)F)cccc3c2=O)cc1O [Compound 638] | < 25% |
| O=C(Nc1ccccc1Oc1ccccc1)c1c[nH]c2ccccc2c1=O [Compound 413] | 25 to 100% |

Item O=C(Nc1ccccc1-c1ccc(CO)cc1)c1c[nH]c2ccccc2c1=O [Compound 302] : provide Emax
25 to 100%

Give reported Emax value for Cc1ccc2c(=O)c(C(=O)Nc3cc4[nH]ccc4cc3C(F)(F)F)c[nH]c2c1 [Compound 576]
25 to 100%

Please report the measured Emax for CC(=O)c1ccccc1NC(=O)c1c[nH]c2ccccc2c1=O [Compound 365]
25 to 100%

* * *

- target-system: ΔF508-CFTR (Homo sapiens, UniProt P13569, DEL508-508)
- Construct: expressed in transfected cells
- assay-summary: Membrane potential optical assay (FRET voltage-sensor dyes, VIPR), identification of potentiator compounds
- Format: cell-based
- condition-set: Table 3; assay not given; read-out: % Activity (% Efficacy, relative efficacy)
endpoint: Emax

Worked set:
| molecule | recorded-result |
| --- | --- |
| CCc1cc2cc[nH]c2cc1NC(=O)c1c[nH]c2ccccc2c1=O | 25 to 100% |
| COCCn1ccc2cc(C(F)(F)F)c(NC(=O)c3c[nH]c4ccc(F)cc4c3=O)cc21 | 25 to 100% |
| COC(=O)c1cccc(-c2cc(C(C)(C)C)c(O)cc2NC(=O)c2c[nH]c3ccccc3c2=O)c1 | 25 to 100% |
| Cc1cccc2[nH]cc(C(=O)Nc3ccc(N4[C@H](C)CC[C@@H]4C)cc3C(F)(F)F)c(=O)c12 | 25 to 100% |
| CCOc1ccccc1-c1ccc(N)cc1NC(=O)c1c[nH]c2ccccc2c1=O | 25 to 100% |
| CN(C)CCNC(=O)c1ccc(-c2cc3cc[nH]c3cc2NC(=O)c2c[nH]c3ccccc3c2=O)cc1 | 25 to 100% |
| COC(=O)[C@@H]1[C@H]2C[C@H]2CN1c1ccc(NC(=O)c2c[nH]c3ccccc3c2=O)c(C(F)(F)F)c1 | 25 to 100% |
| O=C(Nc1cccc2c1CCC2)c1c[nH]c2ccccc2c1=O | 25 to 100% |

Supply Emax measured with ΔF508-CFTR (Homo sapiens, UniProt P13569, DEL508-508) for CC1(C)CCN(c2ccc(NC(=O)c3c[nH]c4ccccc4c3=O)c(C(F)(F)F)c2)C1 .
25 to 100%

Jot down Emax (ΔF508-CFTR (Homo sapiens, UniProt P13569, DEL508-508)) of O=C(Nc1ccccc1)c1c[nH]c2cc(Cl)ccc2c1=O .
25 to 100%

Write down the reported Emax (system: ΔF508-CFTR (Homo sapiens, UniProt P13569, DEL508-508)) of CC(C)(C)c1cc(C(C)(C)C)c(NC(=O)c2c[nH]c3ccc(S(=O)(=O)N4CCCC4)cc3c2=O)cc1O
25 to 100%

Find the measured Emax of O=C(Nc1ccc2cc(C(F)(F)F)[nH]c2c1)c1c[nH]c2ccc(F)cc2c1=O with ΔF508-CFTR (Homo sapiens, UniProt P13569, DEL508-508) as test system.
25 to 100%

Tell me its Emax on ΔF508-CFTR (Homo sapiens, UniProt P13569, DEL508-508): O=C(Nc1ccc(OC(F)(F)F)cc1)c1c[nH]c2ccccc2c1=O
25 to 100%

# return Emax of O=C(Nc1cc2[nH]ccc2cc1-c1cccnc1)c1c[nH]c2ccccc2c1=O (system: ΔF508-CFTR (Homo sapiens, UniProt P13569, DEL508-508))
25 to 100%

# lookup: ΔF508-CFTR (Homo sapiens, UniProt P13569, DEL508-508) Emax, key = Cc1cc(NC(=O)c2c[nH]c3ccccc3c2=O)ccc1F
25 to 100%

Fill in: Emax on ΔF508-CFTR (Homo sapiens, UniProt P13569, DEL508-508), entry O=C(Nc1ccccc1-c1ccc(F)c(Cl)c1)c1c[nH]c2ccccc2c1=O
25 to 100%
